TARGET_UNDER_TEST: Recombinant human his-tagged IGF R extracellular domain protein (human) (UniProt P08069)
EXPERIMENTAL_DETAILS: SPR, Ab captured via anti-huIgG Fc, dissociation at pH 6
Recorded Kd by entry
API: value field is a number in nM; no unit string.

1) VRDN-02074 (antibody, V domains shown) VH: QVQLQESGPGLVKPSETLSLTCTVSGYSITGGYLWNWIRQPPGKGLEWIGYISYHGTNNYKPSLKDRVTISRDTSKNQFSLKLSSVTAADTAVYYCARHGRVFFDYWGQGTLVTVSS VL: DIVMTQSPLSLPVTPGEPASISCRSHQSIVHSNGNTYLQWYLQKPGQSPQLLIYKVSNRLYGVPDRFSGSGSGTDFTLKISRVEAEDVGVYYCFHGSHVPWTFGQGTKVEIK :: 0.25
2) VRDN-02018 (antibody, V domains shown) VH: QVQLQESGPGLVKPSETLSLTCTVSGYSITGGYLWNWIRQPPGKGLEWIGYISYDGHNNYKPSLKDRVTISRDTSKNQFSLKLSSVTAADTAVYYCARYGRVFFDYWGQGTLVTVSS VL: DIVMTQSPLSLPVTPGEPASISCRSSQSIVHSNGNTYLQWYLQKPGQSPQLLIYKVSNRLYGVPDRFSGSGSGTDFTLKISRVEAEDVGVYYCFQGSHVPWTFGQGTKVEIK :: 1.26
3) VRDN-02030 (antibody, V domains shown) VH: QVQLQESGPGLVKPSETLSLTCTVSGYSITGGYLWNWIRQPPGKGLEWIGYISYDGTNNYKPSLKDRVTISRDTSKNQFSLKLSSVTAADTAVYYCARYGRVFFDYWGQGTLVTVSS VL: DIVMTQSPLSLPVTPGEPASISCRHSQSIVHSNGNTYLQWYLQKPGQSPQLLIYKVSNRLYGVPDRFSGSGSGTDFTLKISRVEAEDVGVYYCFQGSHVPWTFGQGTKVEIK :: 1.09
4) VRDN-02014 (antibody, V domains shown) VH: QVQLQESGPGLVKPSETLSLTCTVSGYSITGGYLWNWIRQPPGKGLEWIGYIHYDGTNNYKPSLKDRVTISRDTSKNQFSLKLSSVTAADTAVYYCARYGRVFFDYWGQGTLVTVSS VL: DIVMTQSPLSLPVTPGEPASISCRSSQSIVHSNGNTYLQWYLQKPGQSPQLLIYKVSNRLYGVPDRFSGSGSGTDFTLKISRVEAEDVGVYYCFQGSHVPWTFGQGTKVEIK :: 1.11
5) VRDN-02036 (antibody, V domains shown) VH: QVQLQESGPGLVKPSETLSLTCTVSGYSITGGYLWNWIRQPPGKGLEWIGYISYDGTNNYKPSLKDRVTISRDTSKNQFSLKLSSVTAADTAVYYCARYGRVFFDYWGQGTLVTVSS VL: DIVMTQSPLSLPVTPGEPASISCRSSQSIVHHNGNTYLQWYLQKPGQSPQLLIYKVSNRLYGVPDRFSGSGSGTDFTLKISRVEAEDVGVYYCFQGSHVPWTFGQGTKVEIK :: 1.08

Now for another entry.
Record summary for VRDN-02071 (antibody, V domains shown) VH: QVQLQESGPGLVKPSETLSLTCTVSGYSITGGYLWNWIRQPPGKGLEWIGYIHYDGTNNYKPSLKDRVTISRDTSKNQFSLKLSSVTAADTAVYYCARHGRVFFDYWGQGTLVTVSS VL: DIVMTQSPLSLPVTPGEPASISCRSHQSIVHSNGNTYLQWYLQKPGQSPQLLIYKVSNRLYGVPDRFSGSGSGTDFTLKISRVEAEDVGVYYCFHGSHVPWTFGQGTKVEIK : reported Kd = 0.352

The origin of these recorded values is patent US20240360227A1.
